- EXPERIMENT: Hygroscopicity by dynamic moisture sorption gravimetry (DMSG)
- Assay type: physicochemical
- MEASUREMENT_CONDITIONS: DMSG, 25° C., 80% relative humidity
Structures can show the parent of a compound that is named as a salt.
READOUT_LABEL: Water Uptake at 80% RH (wt. %)

COMPOUND	READOUT_LABEL	ENDPOINT_VALUE
Cc1[nH]c(/C=C2\C(=O)Nc3ccc(F)cc32)c(C)c1C(=O)NC[C@H](O)CN1CCOCC1 [HCl, form 2]	Water Uptake at 80% RH (wt. %)	1.2
Cc1[nH]c(/C=C2\C(=O)Nc3ccc(F)cc32)c(C)c1C(=O)NC[C@H](O)CN1CCOCC1 [L-tartrate]	Water Uptake at 80% RH (wt. %)	9
Cc1[nH]c(/C=C2\C(=O)Nc3ccc(F)cc32)c(C)c1C(=O)NC[C@H](O)CN1CCOCC1 [Tosylate]	Water Uptake at 80% RH (wt. %)	7
Cc1[nH]c(/C=C2\C(=O)Nc3ccc(F)cc32)c(C)c1C(=O)NC[C@H](O)CN1CCOCC1 [Malonate]	Water Uptake at 80% RH (wt. %)	12
